Would you kindly list Ki for each of these compounds?
- systemTested: NMB receptor (Rattus norvegicus, UniProt P24053)
- Sequence (P24053 1-390): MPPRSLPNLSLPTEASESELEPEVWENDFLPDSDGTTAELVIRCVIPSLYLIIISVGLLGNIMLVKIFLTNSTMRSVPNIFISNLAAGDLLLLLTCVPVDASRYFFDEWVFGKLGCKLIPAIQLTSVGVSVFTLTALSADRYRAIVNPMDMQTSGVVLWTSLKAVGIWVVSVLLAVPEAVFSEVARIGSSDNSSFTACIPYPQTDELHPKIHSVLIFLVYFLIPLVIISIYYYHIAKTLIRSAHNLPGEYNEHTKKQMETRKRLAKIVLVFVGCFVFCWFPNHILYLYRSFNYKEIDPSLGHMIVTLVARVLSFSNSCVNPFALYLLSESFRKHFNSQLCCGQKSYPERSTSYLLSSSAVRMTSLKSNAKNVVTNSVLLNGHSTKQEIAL
Where a SMILES comes first, the peptide text is derived from it. Bridges are numbered along the chain shown (N, C = ends). [ ]: non-standard residue; d: D form. 2Nal = N[C@@H](Cc1ccc2ccccc2c1)C(=O)O; d2Nal = N[C@H](Cc1ccc2ccccc2c1)C(=O)O
Give your result in nM as a bare value.

-- ask GET /values?readout=Ki&item= CC(C)[C@@H]1NC(=O)[C@H](CCCCN)NC(=O)[C@@H](Cc2c[nH]c3ccccc23)NC(=O)[C@H](Cc2ccc(O)cc2)NC(=O)[C@@H](NC(=O)[C@H](N)Cc2ccccc2)CSSC[C@@H](C(=O)N[C@@H](Cc2ccc3ccccc3c2)C(N)=O)NC1=O [Analog #4] (H-[dF]CY[dW]KVC[2Nal]-NH2; disulfide 2-7)
-- reply 245

-- ask Then CC(C)[C@@H]1NC(=O)[C@H](CCCCN)NC(=O)[C@@H](Cc2c[nH]c3ccccc23)NC(=O)[C@H](Cc2ccc(O)cc2)NC(=O)[C@@H](NC(=O)[C@@H](N)Cc2ccc3ccccc3c2)CSSC[C@@H](C(=O)N[C@H](Cc2ccc3ccccc3c2)C(N)=O)NC1=O [Analog #9] (H-[2Nal]CY[dW]KVC[d2Nal]-NH2; disulfide 2-7) ?
-- reply 590

-- ask How about CSCC[C@H](NC(=O)[C@H](Cc1ccccc1)NC(=O)[C@H](Cc1c[nH]cn1)NC(=O)CNC(=O)[C@@H](NC(=O)[C@H](C)NC(=O)[C@H](Cc1c[nH]c2ccccc12)NC(=O)[C@H](CC(C)C)NC(=O)[C@H](CC(N)=O)NC(=O)CN)[C@@H](C)O)C(N)=O [NMB, neuromedin B, reference compound] ?
-- reply 1.1
